# target-desc: melanocortin-4 receptor (Homo sapiens, UniProt P32245)
# Construct: expressed in transfected cells; host or cells: HEK293 cells (membrane preparations)
# Sequence (P32245 whole entry): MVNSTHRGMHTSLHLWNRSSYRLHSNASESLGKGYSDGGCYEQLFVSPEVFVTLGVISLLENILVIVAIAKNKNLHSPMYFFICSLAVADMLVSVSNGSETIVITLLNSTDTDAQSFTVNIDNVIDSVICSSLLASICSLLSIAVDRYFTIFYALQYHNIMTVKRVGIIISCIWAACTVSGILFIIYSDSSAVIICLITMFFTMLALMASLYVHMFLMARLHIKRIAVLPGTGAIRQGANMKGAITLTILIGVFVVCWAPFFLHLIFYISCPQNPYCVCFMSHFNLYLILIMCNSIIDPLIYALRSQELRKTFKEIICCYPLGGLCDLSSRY
# protocol: Membrane binding assay (fluorescence polarization, competition with fluorescence labeled NDP-alpha-MSH)
# condition: read-out: hMC-4R binding assay IC50/μM
metric: IC50

Problem: What value of measured IC50 is listed for O=C(c1ccc2nc(-c3ccc(=O)n(CCO)c3)c(CCCN3CCCC3)n2c1)N(CCC1CC1)CCC1CC1 ?
Solution: 0.1 to 1 µM

Problem: What value of measured IC50 is listed for CC(C)CCN(CCC(C)C)C(=O)c1ccc2nc(-c3cc(O)ccn3)c(CCCN3CCCC3)n2c1 ?
Solution: < 0.1 µM

Problem: What value of measured IC50 is listed for COc1ccc(-c2nc3ccc(C(=O)N(CCC(C)C)CCC(C)C)cn3c2CCCN)cc1 ?
Solution: 0.1 to 1 µM

Problem: What value of measured IC50 is listed for CCN(CC)CCCc1c(-c2cccc(OC)c2)nc2ccc(C(=O)N(CCC(C)C)CCC(C)C)cn12 ?
Solution: < 0.1 µM

Problem: What value of measured IC50 is listed for CC(C)CCN(CCC(C)C)C(=O)c1ccc2nc(-c3cccc(Cl)c3)c(CN3CCC(N)CC3)n2c1 ?
Solution: > 1 µM

Problem: What value of measured IC50 is listed for COc1cccc(-c2nc3ccc(C(=O)N(CCC(C)C)CCC(C)C)cn3c2CCCN2CCOCC2)c1 ?
Solution: < 0.1 µM

Problem: What value of measured IC50 is listed for CC(C)CCN(CCC(C)C)C(=O)c1ccc2nc(-c3ccc(C#N)cc3)c(CCCN(C)C)n2c1 ?
Solution: 0.1 to 1 µM

Problem: What value of measured IC50 is listed for C#CCN(C)CCCc1c(-c2cccc(OC)c2)nc2ccc(C(=O)N(CCC(C)C)CCC(C)C)cn12 ?
Solution: > 1 µM

---

Provide the recorded IC50 for the entries that follow.
# target-desc: melanocortin-4 receptor (Homo sapiens, UniProt P32245)
# Construct: expressed in transfected cells; host or cells: HEK293 cells (membrane preparations)
# protocol: Membrane binding assay (fluorescence polarization, competition with fluorescence labeled NDP-alpha-MSH)
# condition: read-out: hMC-4R binding assay IC50/μM

Problem: What is its IC50 for melanocortin-4 receptor (Homo sapiens, UniProt P32245)? Entry: N#Cc1ccc(-c2nc3ccc(C(=O)N(CCC4CC4)CCC4CC4)cn3c2CCCN2CCCC2)cc1 [Example 145]
Solution: < 0.1 µM

Problem: What is its IC50 for melanocortin-4 receptor (Homo sapiens, UniProt P32245)? Entry: COc1cccc(-c2nc3ccc(C(=O)N(CCC(C)C)CCC(C)C)cn3c2CCCN2CCC2)c1 [Example 11]
Solution: < 0.1 µM

Problem: What is its IC50 for melanocortin-4 receptor (Homo sapiens, UniProt P32245)? Entry: CC(C)CN(CC(C)C)C(=O)c1ccc2nc(-c3ccc(C#N)cc3)c(CCCN3CCCC3)n2c1 [Example 144]
Solution: 0.1 to 1 µM

Problem: What is its IC50 for melanocortin-4 receptor (Homo sapiens, UniProt P32245)? Entry: CC(C)CCN(CCC(C)C)C(=O)c1ccc2nc(-c3ccccc3)c(CN3CCC(N)CC3)n2c1 [Example 133]
Solution: 0.1 to 1 µM

Problem: What is its IC50 for melanocortin-4 receptor (Homo sapiens, UniProt P32245)? Entry: CC(C)CCN(CCC(C)C)C(=O)c1ccc2nc(-c3ccncc3)c(CCCN3CCCC3)n2c1 [Example 56]
Solution: < 0.1 µM

Problem: What is its IC50 for melanocortin-4 receptor (Homo sapiens, UniProt P32245)? Entry: CC(=O)OCCOc1ccc(-c2nc3ccc(C(=O)N(CCC(C)C)CCC(C)C)cn3c2CCCN2CCCC2C)cn1 (stereo not drawn) [Example 102]
Solution: < 0.1 µM

Problem: What is its IC50 for melanocortin-4 receptor (Homo sapiens, UniProt P32245)? Entry: CC(C)CCN(CCC(C)C)C(=O)c1ccc2nc(-c3ccc4c(c3)OCCO4)c(CCCN)n2c1 [Example 1]
Solution: 0.1 to 1 µM

Problem: What is its IC50 for melanocortin-4 receptor (Homo sapiens, UniProt P32245)? Entry: CC(C)CCN(CCC(C)C)C(=O)c1ccc2nc(-c3ccc(Cl)cn3)c(CCCN3CCCC3)n2c1 [Example 42]
Solution: < 0.1 µM

Problem: What is its IC50 for melanocortin-4 receptor (Homo sapiens, UniProt P32245)? Entry: CC(C)CCN(CCC(C)C)C(=O)c1ccc2nc(-c3ccc(Cl)nc3)c(CCCN(C)C)n2c1 [Example 66]
Solution: 0.1 to 1 µM

Problem: What is its IC50 for melanocortin-4 receptor (Homo sapiens, UniProt P32245)? Entry: COc1cccc(-c2nc3ccc(C(=O)N(CCC(C)C)CCC(C)C)cn3c2CCC(C)N2CCCC2)c1 (stereo not drawn) [Example 21]
Solution: < 0.1 µM

Problem: What is its IC50 for melanocortin-4 receptor (Homo sapiens, UniProt P32245)? Entry: CC(C)CCN(CCC(C)C)C(=O)c1ccc2nc(-c3ccc(OCCCO)nc3)c(CCCN3CCCC3)n2c1 [Example 92]
Solution: 0.1 to 1 µM

Problem: What is its IC50 for melanocortin-4 receptor (Homo sapiens, UniProt P32245)? Entry: CC(C)CCN(CCC(C)C)C(=O)c1ccc2nc(-c3ccc(Cl)cc3)c(CN3CCN4CCCC4C3)n2c1 (stereo not drawn) [Example 128]
Solution: > 1 µM

Problem: What is its IC50 for melanocortin-4 receptor (Homo sapiens, UniProt P32245)? Entry: COc1ccc(-c2nc3ccc(C(=O)N(CCC(C)C)CCC(C)C)cn3c2CCCN2CCCC2)cn1 [Example 82]
Solution: < 0.1 µM

Problem: What is its IC50 for melanocortin-4 receptor (Homo sapiens, UniProt P32245)? Entry: CC(C)CCN(CCC(C)C)C(=O)c1ccc2nc(-c3ccc(Cl)cc3)c(CCCN3CCCC3)n2c1 [Example 19]
Solution: < 0.1 µM

Problem: What is its IC50 for melanocortin-4 receptor (Homo sapiens, UniProt P32245)? Entry: CC(C)CCN(CCC(C)C)C(=O)c1ccc2nc(-c3ccc4c(c3)OCO4)c(CCCN3CCCC3)n2c1 [Example 39]
Solution: < 0.1 µM

Problem: What is its IC50 for melanocortin-4 receptor (Homo sapiens, UniProt P32245)? Entry: COc1ccc(-c2nc3ccc(C(=O)N(CCC(C)C)CCC(C)C)cn3c2CCCN(C)C)cc1 [Example 5]
Solution: 0.1 to 1 µM

Problem: What is its IC50 for melanocortin-4 receptor (Homo sapiens, UniProt P32245)? Entry: CC(=O)OCCn1cc(-c2nc3ccc(C(=O)N(CCC(C)C)CCC(C)C)cn3c2CCCN2CCCC2C)ccc1=O (stereo not drawn) [Example 101]
Solution: < 0.1 µM

Problem: What is its IC50 for melanocortin-4 receptor (Homo sapiens, UniProt P32245)? Entry: CC(C)CCN(CCC(C)C)C(=O)c1ccc2nc(-c3ncco3)c(CCCN3CCC[C@@H]3CO)n2c1 [Example 70]
Solution: 0.1 to 1 µM

Problem: What is its IC50 for melanocortin-4 receptor (Homo sapiens, UniProt P32245)? Entry: CC(C)CCN(CCC(C)CO)C(=O)c1ccc2nc(-c3ccc(=O)[nH]c3)c(CCCN3CCCC3)n2c1 (stereo not drawn) [Example 149]
Solution: 0.1 to 1 µM

Problem: What is its IC50 for melanocortin-4 receptor (Homo sapiens, UniProt P32245)? Entry: CCN(C)CCCc1c(-c2cccc(OC)c2)nc2ccc(C(=O)N(CCC(C)C)CCC(C)C)cn12 [Example 29]
Solution: < 0.1 µM

Problem: What is its IC50 for melanocortin-4 receptor (Homo sapiens, UniProt P32245)? Entry: COc1cccc(-c2nc3ccc(C(=O)N(CCC(C)C)CCC(C)C)cn3c2CC(C)CN2CCCC2)c1 (stereo not drawn) [Example 54]
Solution: 0.1 to 1 µM

Problem: What is its IC50 for melanocortin-4 receptor (Homo sapiens, UniProt P32245)? Entry: COc1cccc(-c2nc3ccc(C(=O)N(CCC(C)C)CCC(C)C)cn3c2CN2CCC(N(C)C)CC2)c1 [Example 114]
Solution: 0.1 to 1 µM

Problem: What is its IC50 for melanocortin-4 receptor (Homo sapiens, UniProt P32245)? Entry: CC(C)CCN(CCC(C)C)C(=O)c1ccc2nc(-c3ccc(Cl)cc3)c(CN3CCC(N)CC3)n2c1 [Example 117]
Solution: 0.1 to 1 µM

Problem: What is its IC50 for melanocortin-4 receptor (Homo sapiens, UniProt P32245)? Entry: CC(C)CCN(CCC(C)C)C(=O)c1ccc2nc(-c3ncco3)c(CCCN3CCCC3C)n2c1 (stereo not drawn) [Example 69]
Solution: < 0.1 µM

Problem: What is its IC50 for melanocortin-4 receptor (Homo sapiens, UniProt P32245)? Entry: COCCn1cc(-c2nc3ccc(C(=O)N(CCC(C)C)CCC(C)C)cn3c2CCCN2CCCC2)ccc1=O [Example 95]
Solution: < 0.1 µM

Problem: What is its IC50 for melanocortin-4 receptor (Homo sapiens, UniProt P32245)? Entry: COc1cccc(-c2nc3ccc(C(=O)N(CCC(C)C)CCC(C)C)cn3c2CCCN(C)C)c1 [Example 28]
Solution: 0.1 to 1 µM

Problem: What is its IC50 for melanocortin-4 receptor (Homo sapiens, UniProt P32245)? Entry: CC(C)CCN(CCC(C)C)C(=O)c1ccc2nc(-c3ccc4c(c3)OCCO4)c(CCCN3CCCCC3)n2c1 [Example 2]
Solution: < 0.1 µM

Problem: What is its IC50 for melanocortin-4 receptor (Homo sapiens, UniProt P32245)? Entry: CCCC1CCCN1C(=O)c1ccc2nc(-c3ccc(C#N)cc3)c(CCCN3CCCC3)n2c1 (stereo not drawn) [Example 147]
Solution: > 1 µM

Problem: What is its IC50 for melanocortin-4 receptor (Homo sapiens, UniProt P32245)? Entry: CC(C)CCN(CCC(C)C)C(=O)c1ccc2nc(-c3ncco3)c(CCCN3CC[C@@H](O)C3)n2c1 [Example 71]
Solution: 0.1 to 1 µM

Problem: What is its IC50 for melanocortin-4 receptor (Homo sapiens, UniProt P32245)? Entry: CC(C)CCN(CCC(C)C)C(=O)c1ccc2nc(-c3ccc4c(c3)NC(=O)CO4)c(CCCN3CCCC3)n2c1 [Example 43]
Solution: < 0.1 µM
